Give MIC for every item shown.
- Test system: H. pylori ATCC 700684 (clarithromycin resistant)
- TEST NAME: MIC/MBC by broth microdilution, strain ATCC 700684 (CLR-R)
- Format: cell-based
- CONDITION PARAMETERS: Helicobacter pylori, ATCC700684, 72 h
State just the number; it will be interpreted in µg/mL.

The value of MIC measured for the compound CC[C@H]1OC(=O)[C@H](C)[C@@H](O[C@H]2C[C@@](C)(OC)[C@@H](O)[C@H](C)O2)[C@H](C)[C@@H](O[C@@H]2O[C@H](C)C[C@H](N(C)C)[C@H]2O)[C@](C)(OC)C[C@@H](C)C(=O)[C@H](C)[C@@H](O)[C@]1(C)O turned out to be 16

The value of MIC measured for the compound COC(=O)C1=C(C)NC(C)=C(C(=O)OC)C1c1ccccc1[N+](=O)[O-] turned out to be 8

The value of MIC measured for the compound Cc1ncc([N+](=O)[O-])n1CCO turned out to be 1

The value of MIC measured for the compound COC(=O)C1=C(C)NC(C)=C(C(=O)OC(C)(C)CN(C)CCC(c2ccccc2)c2ccccc2)C1c1cccc([N+](=O)[O-])c1 (stereo not shown) turned out to be 8
